System: PA-1
Protocol Text: Primary qHTS to identify gynecologic anti-cancer compounds using libraries of approved drugs and bioactive compounds (AID 1345084); further: nearly all actives have a fitted effect of over 55% in size
Condition Summary: Gynecologic cancer cell panel viability, ATPlite luminescence, 48 h; series mostly up to 57.5 µM
Records with an inconclusive call do not appear. Active and inactive are the calls of the source. The call rests on the fitted dose curve; in most records, active means well fitted cell-killing curve with a large enough effect; inconclusive means small, poorly fitted or top-dose-only effect, or effect the other way; inactive means flat fitted curve, though single readings scatter.
Measurement Label: outcome

             compound_structure_string  value_measured
0          CN(C)c1nc(N(C)C)nc(N(C)C)n1        inactive
1  Cn1ccc2cc3c(cc21)CCN3C(=O)Nc1cccnc1        inactive
2           Cn1c(=O)c2c(ncn2C)n(C)c1=O        inactive

* * *

Target Under Test: Papain (Carica papaya)
Protocol Text: Primary qHTS assay for inhibitors of the protease papain (AID 1645873);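 further: papain turnover of Z-FR-AMC read as the AMC fluorescence gain over 10 min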
Condition Summary: papain Z-FR-AMC cleavage, AMC fluorescence; series mostly up to 49.8 µM
Records with an inconclusive call do not appear. Calls of active or inactive are those of the source. The call rests on the fitted dose curve; in most records, active means well fitted inhibition curve with a large enough effect; inconclusive means small, poorly fitted or top-dose-only effect; inactive means no such curve, though single readings can be large or run the other way.
Write down one outcome, taken from label 1 = active, label 0 = inactive

For orientation, consider the following solved cases.
>>> print(df.to_string())
                                   molecule    class
0  CCN1CCCC1CNC(=O)c1cc(S(=O)(=O)CC)c(N)cc1OC (centres undefined)  label 0
1  COc1ccc(C2CNC(=O)C2)cc1OC1CCCC1 (centres undefined)  label 0
2  CC(C(=O)O)c1cccc(C(=O)c2ccccc2)c1 (centres undefined)  label 0

What did the test return for `CN1CCC(=C2c3ccccc3C=Cc3ccccc32)CC1` ?
label 0

And then CCC1(C)CC(=O)NC1=O (centres undefined) , what is it?
label 0

And then `CN(C)CCCN1c2ccccc2CCc2ccc(Cl)cc21` , what is it?
label 0

And then `CC[N+](CC)(CC)CCOc1cccc(OCC[N+](CC)(CC)CC)c1OCC[N+](CC)(CC)CC` , what is it?
label 0

And then `CN1CCC(=C2c3ccccc3CC(=O)c3sccc32)CC1` , what is it?
label 0

And then COc1cc2nc(N(C)CCCNC(=O)C3CCCO3)nc(N)c2cc1OC (centres undefined) , what is it?
label 1

And then `Cn1ccc2cc3c(cc21)CCN3C(=O)Nc1cccnc1` , what is it?
label 0

And then `COc1cc2c(c(OC)c1OC)-c1ccc(OC)c(=O)cc1[C@@H](NC(C)=O)CC2` , what is it?
label 0

And then `CCCCc1oc2ccccc2c1C(=O)c1cc(I)c(OCCN(CC)CC)c(I)c1` , what is it?
label 0

And then `COc1ccc2c(c1)c(CC(=O)O)c(C)n2C(=O)c1ccc(Cl)cc1` , what is it?
label 0

And then `O=C(Nc1ccc([N+](=O)[O-])cc1Cl)c1cc(Cl)ccc1O` , what is it?
label 0

* * *

Tested on: TAB113
Protocol Text: qHTS profiling for inhibitors of Plasmodium falciparum proliferation (AID 504749); further: nearly all actives have a fitted effect of over 60% in size
Condition Summary: P. falciparum in erythrocytes, SYBR Green DNA, 72 h; series mostly up to 28.7 µM
Results filed as inconclusive are left out. Activity calls are given as the source filed them. Calls come from the whole dose curve; as a rule, active = well fitted inhibition curve with a large enough effect; inconclusive = small, poorly fitted or top-dose-only effect; inactive = flat fitted curve, though single readings scatter.
Write down one outcome, taken from True for active, False for inactive

For orientation, consider the following solved cases.
>>> print(df.to_string())
                                   compound  class
0  CC(CCc1ccc(O)cc1)NCCc1ccc(O)c(O)c1 (configuration not stated)  False
1  CS(=O)(=O)Nc1ccc([N+](=O)[O-])cc1Oc1ccccc1  False
2  CCCNCC(O)COc1ccccc1C(=O)CCc1ccccc1 (configuration not stated)   True

What did the test return for `CC[C@@]1(O)C(=O)OCc2c1cc1n(c2=O)Cc2cc3c(CN(C)C)c(O)ccc3nc2-1` ?
True

And then `NC12CC3CC(CC(C3)C1)C2` , what is it?
False

And then `O=C(c1ccc(OCCN2CCCCC2)cc1)c1c(-c2ccc(O)cc2)sc2cc(O)ccc12` , what is it?
True

And then Clc1ccc(C(c2ccccc2Cl)C(Cl)Cl)cc1 (configuration not stated) , what is it?
False
